Biological target: T1, CD134 expressed on the cell surface of HT1080_OX40 cells (human, UniProt P43489 29-277)
T1 sequence (looked up): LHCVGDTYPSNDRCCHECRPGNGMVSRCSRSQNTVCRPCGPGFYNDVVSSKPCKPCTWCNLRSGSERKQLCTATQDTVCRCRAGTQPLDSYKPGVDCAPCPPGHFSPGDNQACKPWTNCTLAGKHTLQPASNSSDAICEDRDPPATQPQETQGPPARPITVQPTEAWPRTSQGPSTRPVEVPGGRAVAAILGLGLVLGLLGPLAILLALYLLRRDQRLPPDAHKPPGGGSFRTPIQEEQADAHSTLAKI
Assay: cell-based or functional assay

{"columns": ["BINDER", "EC 50 (IL-8 release, cross-linked), µg/mL"],
 "data": [
  ["P018.S.12.A.E04 (antibody, V domains shown, V regions on human Ig constant parts; also called AB134_75) VH: QSVEESGGRLVTPGTPLTLTCTVSGFSLNSYDMSWVRQAPGKGLEWIGFISASGSIYFANWAKGRFTISKTSTTVDLKITSPTTEDTATYFCASDSYGWAYVYYFNLWGPGTLVTVSS VL: AVVLTQTPASVSAAVGGTVTINCRASEDVGSYLGWYQQRAGQPPKLLMHDASDLASGVPSRFSGSGSGTEFTLTISGVQSDDAATYYCQSAWLGTNTDKMAFGGGTEVVVK", 1.01],
  ["P018.S.04.A.F06 (antibody, V domains shown, V regions on human Ig constant parts; also called AB134_13) VH: QSVEESGGRLVTPGTPLTLTCTVSGIDLSSSAMSWVRQAPGKGLEWIGIIGYNDFTYYANWAKGRFTISKTSTTVDLKMTSPTTEDTATYFCARGGSSSYSDYVFDPWGPGTLVTVSS VL: AFEMTQTPSSVSEPVGGTVTIKCQASQSIYSNLAWYQQKPGQRPKLLIYDASDLASGVPSRFSGSGYGTEFTLTISDLESADAATYYCQSYYGISSYGVAFGGGTEVVVK", 0.44],
  ["P018.S.12.A.B05 (antibody, V domains shown, V regions on human Ig constant parts; also called AB134_59) VH: QQQLVESGGGLVKPGASLTLTCKASGFFFSGSYYMCWVRQAPGKGLEWIACIYTGSDDDTNYASWAKGRFTISKTSSTTVTLQMTSLTAADTATYFCARRNYDTDWGGDLWGPGTLVTVSS VL: AVVLTQTPASVEAAVGGTVTIKCQASQSIGSSLAWYQQKPGQRPKLLIYYASNLASGVSSRFKGSGSGTQFTLTISDLESADAATYYCQCTYTSSDYLDAFGGGTEVVVK", 0.102],
  ["P018.S.04.A.F05 (antibody, V domains shown, V regions on human Ig constant parts; also called AB134_12) VH: QSVEESGGRLVTPGTPLTLTCTVSGIDLSSYTMGWVRQAPGKGLEYIGIIGTSGTTYYSSWAKGRFTISKTSTTVDLKITSPTTEDTATYFCARLGDDYGDFHFNLWGQGTLVTVSS VL: DLVMTQTPASVSEPVGGTVTIKCQASQNIGNYLAWYQQKPGQPPKLLIYAASNLASGVSSRFKGSGSGTEYTLTISDLESADAATYYCQCTYYDSTYFAFGGGTEVVVK", 0.225],
  ["P018.S.11.A.C03 (antibody, V domains shown, V regions on human Ig constant parts; also called AB134_28) VH: QSVEESGGRLVTPGTPLTLTCKVSGFSLSTYDMIWVRQAPAKGLEYIGIIGGSGFTYYANWAKGRFTISKTSTTVDLKITSPTTEDTATYFCARNNYDMWGPGTLVTVSS VL: DVVMTQTPASVSEPVGGTVTIKCQASQSISNELAWHQQKPGQRPNLLIYGASTLESGVPSRFKGSRSGTEYTLTISDLESDDAATYYCQCTYYGSSYVGGAFGGGTEVVVK", 0.217],
  ["P018.S.04.A.D06 (antibody, V domains shown, V regions on human Ig constant parts; also called AB134_9) VH: QSLEESGGDLVKPGASLTLTCTASGFSFSSSYYMCWVRQAPGKGLEWIACIYTGDGASYYASWAKGRFTISKPSSTTVTLQVTSLTAADTATYFCGRGEYDNDWGFGLWGPGTLVTVSS VL: AYDMTQTPASVEVPVGGTVTINCQASEDISSYLSWYQQKPGQPPELLIYYASNLASGVSSRFKGSRSGTEFTLTISDLESADAATYYCQCSNYGGSWTFGGGTEVVVK", 0.355],
  ["P018.S.12.A.F03 (antibody, V domains shown, V regions on human Ig constant parts; also called AB134_79) VH: QSLEESGGRLVAPGTPLTLTCTVSGIDLSRYAMGWVRQAPGKGLEYIGIIDDNDITYFATWAKGRFTISKTSTTLGLKITSPTTEDTATYFCARTADYADYSFGLWGPGTLVTVSS VL: DVVMTQTPTSVSEPVGGTVTIKCQASENIGNYLAWYQQRPGQRPKLLIYAASNLASGVPSRFKGSGSGTEYALTISDLESDDAATYYCQCTYDDSEYFVFGGGTEVVVK", 1.63],
  ["P018.S.11.A.D03 (antibody, V domains shown, V regions on human Ig constant parts; also called AB134_30) VH: QEQLKETGGGLVQPGGSLTLSCKASGFDFSSGYMSWVRQAPGKGLEWIGYIDPVFGSTYYASWVNGRFAISSHNAQNTLYLQLNSLTAADTATYFCARDLRAFYSGWGGINLWGPGTLVTVSS VL: AAVLTQTPSPVSAAVGGTVTIKCQSSQIVVNNNFLSWYQQKPGQPPKLLIYDASNLASGVPDRFSGSGSGTQFTLTISGVQSDDAATYYCLGGYDDDAENAFGGGTEVVVQ", 0.176],
  ["P018.S.12.A.G05 (antibody, V domains shown, V regions on human Ig constant parts; also called AB134_87) VH: QSVEESGGRLVTPGTPLTLTCTVSGFSLSTYGMSWVRQAPGKGLEWIGIIDGGDSPYYASWAEGRFTISKTSTTVDLKITSPTTEDTATYFCARIAGSNHGPFDLWGPGTLVTVSS VL: DVVMTQTPASVSEPVGGTVTINCQASEFISNYLAWYQQKPGQPPKLLIYGASTLASGVPSRFKGSGSGTDFTLTISDLESADAATYYCQCTAYGSSYVGFGGGTEVVVK", 0.745],
  ["P018.S.04.A.H05 (antibody, V domains shown, V regions on human Ig constant parts; also called AB134_15) VH: QSVEESGGRLVTPGTPLTLTCTVSGFSLSSYAMGWVRQAPGKGLEWIGWINTAGGTDYTSWAKGRFTISKTSTTVDLKVTSLTTEDTATYFCARYDYYYFDLWGQGTLVTVSS VL: AQVLTQTASSVSAAVGGTVTISCQSSQSVYDNNWLAWYQQKPGQPPKLLIYSASTLASGVPSRFKGSGSGTEFTLTISDLESDDAAAYYCHGVYSGSIHAFGGGTEVVVI", 1.17]
]}
